Source listed as ChEMBL document CHEMBL1156829.

# protocol.summary: NOVARTIS: Cytotoxicity against human hepatocellular carcinoma cell line (Huh7)
# Type: toxicity, cell-based, Huh-7
# setup.conditions: Huh7 cells (hepatocellular carcinoma cell line)
measurement.label: CC50

CC(C)c1nc(N2CCN(C(=O)Nc3ccccc3)CC2)c(C#N)c2c1COC(C)(C)C2 :: > 100 µM
CCOc1ccc(NC(=O)c2ccc(C)o2)cc1 :: 13 µM
CCCCOc1ccc(N2C(N)=NC(N)=NC2(C)C)cc1 :: > 10 µM
CCN1CCN(c2cc(C)c3cc(NC(=O)C=Cc4cccc(Cl)c4)ccc3n2)CC1 :: 61.4 µM
C=Cc1cc2ccccc2c2cc3c(cc12)C[N+](C)(C)C3 :: > 100 µM
CCn1ncc(CN2CCC(C(=O)Nc3ccccc3-c3cccc(OC)c3)CC2)c1C :: 47.6 µM
COC(=O)C1=C(C)NC(=Cc2cc(C)n(-c3cc(C)ccc3C)c2C)C1=O :: > 100 µM
Cn1c(SCC2CCCO2)nnc1C1CCN(C/C=C/c2ccccc2)CC1 (stereo unspecified) :: > 3.89 µM
OCc1nc2ccccc2n1Cc1ccccc1F :: > 10 µM
c1cncc(-c2nc3cc(-c4ccc5[nH]c(-c6cccnc6)nc5c4)ccc3[nH]2)c1 :: > 10 µM

QUERY: Give its CC50 value. Item: `NS(=O)(=O)c1ccc(CCNC(=O)C=Cc2ccc3c(c2)OCO3)cc1`
RESULT: > 100 µM
